assayed.target: GST-RIPK1 (recombinant GST-RIPK1 kinase domain (residues 1-327)) (Homo sapiens, UniProt Q13546)
Construct: recombinant GST-RIPK1 kinase domain (residues 1-327) enzyme produced from baculovirus-transfected Sf21 cells
experiment.description: RIPK1-ADP-Glo Enzymatic Assay
experimental.conditions: ten-point titration, top compound concentration of 100000 nM; 25 nM GST-RIPK1, 300 μM ATP, 3 μM dephosphorylated-MBP; 30 min pre-incubation, 150 min reaction
pEC50: −log10 of the molar value.
measured.property: pEC50

| compound | measured.property | obs.value |
| --- | --- | --- |
| O=C1N2[C@@H](CC[C@H]2c2cncc(F)c2)OC12CCC(OCc1ccccc1)CC2 (single isomer, unassigned) [Example 2.1] | pEC50 | 5.95 |
| O=C1N2[C@@H](CC[C@H]2c2cc(F)cc(F)c2)OC12CC(Oc1ccccc1)C2 (single isomer, unassigned) [Example 16.2] | pEC50 | 7.54 |
| CCOc1ncc(COC2CC3(C2)OC2CC[C@@H](c4cnccn4)N2C3=O)cn1 (some centres unmarked) [Example 18.8] | pEC50 | 6.33 |
| O=C1N2[C@@H](CC[C@H]2c2cnccn2)OC12CC(OCc1cccnc1C(F)(F)F)C2 (some centres unmarked) [Example 20.6] | pEC50 | 7.07 |

P: N#CCc1ncc(COC2CC3(C2)OC2CC[C@@H](c4cnccn4)N2C3=O)cc1Cl (some centres unmarked) [Example 18.98]
Q: N#Cc1cc(F)cc([C@@H]2CC[C@H]3O[C@]4(C[C@H](Oc5cc(C#N)ncn5)C4)C(=O)N32)c1 [Example 9.44]
Q: Form field 'greater pEC50' accepts P or Q ; which applies? Selection: enter the item's label.
A: Q
(Q: 7.55, P: 6.70)

a: O=C1N2[C@@H](CC[C@H]2c2cc(F)cc(F)c2)OC12CC(Oc1cc(-n3cccn3)ncn1)C2 (some centres unmarked) [Example 9.8]
b: CC(O[C@H]1C[C@@]2(C1)O[C@@H]1CC[C@@H](c3cc(F)cc(F)c3)N1C2=O)c1ccc(F)cn1 (single isomer, unassigned) [Example 12.1]
Q: Which record shows the lower pEC50: the first, a , or the second, b ? Selection: enter the item's label.
A: b
(b: 6.41, a: 7.62)

1: N#Cc1ccc(OC2CC3(C2)O[C@@H]2CC[C@@H](c4ccccc4)N2C3=O)cc1 (some centres unmarked) [Example 8.9]
2: N#Cc1ccc(O[C@H]2C[C@@]3(C2)O[C@@H]2CC[C@@H](c4ccccc4)N2C3=O)cc1F [Example 8.1]
3: COCCOc1ccc(COC2CC3(C2)OC2CC[C@@H](c4cnccn4)N2C3=O)cc1 (some centres unmarked) [Example 18.99]
4: O=C1N2[C@@H](CC[C@H]2c2cc(F)cc(F)c2)O[C@]12C[C@H](Oc1ncnn3cccc13)C2 [Example 9.22]
5: N#Cc1cc(O[C@H]2C[C@]3(C2)O[C@@H]2CC[C@@H](c4ccccc4F)N2C3=O)ncn1 [Example 9.43]
Q: Rank the 5 compounds: largest pEC50 first, smallest last. # the answer lists labels in the order requested
A: 4, 2, 1, 3, 5

---

assayed.target: GST-RIPK1 (recombinant GST-RIPK1 kinase domain (residues 1-327)) (Homo sapiens)
Construct: recombinant GST-RIPK1 kinase domain (residues 1-327) enzyme produced from baculovirus-transfected Sf21 cells
experiment.description: RIPK1-ADP-Glo Enzymatic Assay
experimental.conditions: ten-point titration, top compound concentration of 100000 nM; 25 nM GST-RIPK1, 300 μM ATP, 3 μM dephosphorylated-MBP; 30 min pre-incubation, 150 min reaction
pEC50: −log10 of the molar value.
measured.property: pEC50

| compound | pEC50 |
| --- | --- |
| O=C1N2[C@@H](CC[C@H]2c2cnccn2)OC12CC(OCc1cnn(C34CC(C3)C4)c1)C2 (stereo partly shown) [Example 18.6] | 6.44 |
| Cn1ccc([C@@H]2CC[C@H]3OC4(CC(Oc5cccnc5)C4)C(=O)N32)n1 (stereo partly shown) [Example 19.8] | 6.32 |

I: COc1cc(OC2CC3(C2)O[C@@H]2CC[C@@H](c4ccccc4)N2C3=O)ccc1F (stereo partly shown) [Example 8.18]
II: CS(=O)(=O)c1ccc(COC2CC3(C2)OC2CC[C@@H](c4cnccn4)N2C3=O)cc1 (stereo partly shown) [Example 18.17]
Q: Which record shows the lower pEC50: the first, I , or the second, II ? Selection: enter the item's label.
A: II

---

assayed.target: GST-RIPK1 (recombinant GST-RIPK1 kinase domain (residues 1-327)) (Homo sapiens)
Construct: recombinant GST-RIPK1 kinase domain (residues 1-327) enzyme produced from baculovirus-transfected Sf21 cells
Sequence (Q13546 1-327): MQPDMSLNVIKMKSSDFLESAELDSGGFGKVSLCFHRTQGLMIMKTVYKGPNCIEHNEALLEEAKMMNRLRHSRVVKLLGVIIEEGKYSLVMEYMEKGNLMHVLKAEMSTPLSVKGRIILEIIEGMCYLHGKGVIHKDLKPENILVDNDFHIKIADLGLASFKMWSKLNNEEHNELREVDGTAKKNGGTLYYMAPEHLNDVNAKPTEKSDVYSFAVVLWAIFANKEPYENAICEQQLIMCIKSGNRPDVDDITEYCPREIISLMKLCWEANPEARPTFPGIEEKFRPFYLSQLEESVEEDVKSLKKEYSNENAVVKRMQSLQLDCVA
experiment.description: RIPK1-ADP-Glo Enzymatic Assay
experimental.conditions: ten-point titration, top compound concentration of 100000 nM; 25 nM GST-RIPK1, 300 μM ATP, 3 μM dephosphorylated-MBP; 30 min pre-incubation, 150 min reaction
measured.property: EC50 (nM)

Please review the entries below; each comes with its answer.
| compound | unit.of.measure | EC50 |
| --- | --- | --- |
| Cn1nccc1-c1cc(O[C@H]2C[C@@]3(C2)O[C@@H]2CC[C@@H](c4cc(F)cc(F)c4)N2C3=O)ncn1 [Example 9.55] | nM | 13 |
| Cc1nnc(-c2ccc(COC3CC4(C3)O[C@@H]3CC[C@@H](c5cnccn5)N3C4=O)cc2)o1 (some centres unmarked) [Example 22.9] | nM | 37 |
| O=C1N2C(CC[C@H]2c2cnccn2)OC12CC(OCc1ccc(C(F)F)cn1)C2 (some centres unmarked) [Example 18.11] | nM | 89 |
| O=C1N2C(CC[C@H]2c2cnccn2)OC12CC(OCc1cc(Cl)ccc1-c1cnco1)C2 (some centres unmarked) [Example 18.33] | nM | 43 |

a: N#Cc1cc(O[C@H]2C[C@]3(C2)O[C@@H]2CC[C@@H](c4cc(F)cc(F)c4)N2C3=O)ncn1 [Example 9.12]
b: O=C1N2C(CC[C@H]2c2cnccn2)OC12CC(OCc1ccc3nc(C4CC4)cn3c1)C2 (some centres unmarked) [Example 18.22]
c: O=C1N2C(CC[C@H]2c2cnccn2)OC12CC(OCc1nnc(Cc3ccccc3)s1)C2 (some centres unmarked) [Example 18.64]
d: O=C1N2[C@@H](CC[C@H]2c2cc(F)cc(F)c2)O[C@]12C[C@H](Oc1ncnc3sccc13)C2 [Example 9.30]
Q: Rank the 4 compounds: largest EC50 first, smallest last. # the answer lists labels in the order requested
A: a, c, b, d

---

assayed.target: GST-RIPK1 (recombinant GST-RIPK1 kinase domain (residues 1-327)) (Homo sapiens, UniProt Q13546)
Construct: recombinant GST-RIPK1 kinase domain (residues 1-327) enzyme produced from baculovirus-transfected Sf21 cells
experiment.description: RIPK1-ADP-Glo Enzymatic Assay
experimental.conditions: ten-point titration, top compound concentration of 100000 nM; 25 nM GST-RIPK1, 300 μM ATP, 3 μM dephosphorylated-MBP; 30 min pre-incubation, 150 min reaction
pEC50: −log10 of the molar value.
measured.property: pEC50

| molecule | pEC50 |
| --- | --- |
| O=C1N2C(CC[C@H]2c2cnccn2)OC12CC(OCc1cncc(OCCF)c1)C2 (stereo partly shown) [Example 18.77] | 6.76 |
| Cn1cc(C2CCC3OC4(CC(Oc5cc(C#N)ncn5)C4)C(=O)N32)cn1 (single isomer, unassigned) [Example 6.2] | 4.00 |
| N#CC1(c2ccc(COC3CC4(C3)O[C@@H]3CC[C@@H](c5cnccn5)N3C4=O)cc2)CC1 (stereo partly shown) [Example 20.8] | 6.63 |
| Cc1ncccc1COC1CC2(C1)O[C@@H]1CC[C@@H](c3cnccn3)N1C2=O (stereo partly shown) [Example 20.5] | 7.13 |
| NC(=O)c1ccnc(O[C@H]2C[C@@]3(C2)O[C@@H]2CC[C@@H](c4ccc(F)cc4)N2C3=O)c1 [Example 10.6] | 7.28 |

I: Cc1cc(Cl)cnc1COC1CC2(C1)O[C@@H]1CC[C@@H](c3cnccn3)N1C2=O (stereo partly shown) [Example 22.3]
II: O=C1N2C(CC[C@H]2c2cnccn2)OC12CC(OCc1ccc(OCCF)nn1)C2 (stereo partly shown) [Example 18.44]
Q: Which record shows the lower pEC50: the first, I , or the second, II ? Selection: enter the item's label.
A: II

Data provenance: patent US20250154173A1
